test system: Mycobacterium tuberculosis; assay: Antimicrobial activity against Mycobacterium tuberculosis H37Rv ATCC 27294 at 1 to 100 ug/ml after 7 days by resazurin assay; format: functional
compounds and their reported inhibition (INH)
readoutType: inhibition (INH)

compound=COc1cc(NS(=O)(=O)c2cc(F)cc(C(F)(F)F)c2)ccc1-n1cnc(Cl)c1 tgt="Mycobacterium tuberculosis" recordedresult=95%
compound=COc1ccc(C(=O)Nc2ccc(-n3cnc(Cl)c3)c(OC)c2)cc1OC tgt="Mycobacterium tuberculosis" recordedresult=0%
compound=COc1cc(NS(=O)(=O)c2ccc([N+](=O)[O-])cc2)ccc1-n1cnc(Cl)c1 tgt="Mycobacterium tuberculosis" recordedresult=90%
compound=COc1cc(NS(=O)(=O)c2cccs2)ccc1-n1cnc(Cl)c1 tgt="Mycobacterium tuberculosis" recordedresult=90%
compound=COc1cc(NC(=O)c2ccccc2)ccc1-n1cnc(Cl)c1 tgt="Mycobacterium tuberculosis" recordedresult=<90%
compound=COc1cc(NS(=O)(=O)c2ccc(Cl)cc2Cl)ccc1-n1cnc(Cl)c1 tgt="Mycobacterium tuberculosis" recordedresult=<90%
compound=COc1cc(NC(=O)c2ccco2)ccc1-n1cnc(Cl)c1 tgt="Mycobacterium tuberculosis" recordedresult=<90%
compound="COc1cc(NS(=O)(=O)c2cccc(C(C)C#N)c2)ccc1-n1cnc(Cl)c1 (stereo unspecified)" tgt="Mycobacterium tuberculosis" recordedresult=<90%
compound=COc1cc(NC(=O)Cc2cccc(C(F)(F)F)c2)ccc1-n1cnc(Cl)c1 tgt="Mycobacterium tuberculosis" recordedresult=<90%
compound=COc1cc(NC(=O)c2ccc(Cl)cc2Cl)ccc1-n1cnc(Cl)c1 tgt="Mycobacterium tuberculosis" recordedresult=<90%
compound=COc1cc(NS(=O)(=O)c2ccco2)ccc1-n1cnc(Cl)c1 tgt="Mycobacterium tuberculosis" recordedresult=<90%
compound=COc1cc(NS(=O)(=O)c2ccccc2)ccc1-n1cnc(Cl)c1 tgt="Mycobacterium tuberculosis" recordedresult=<90%
compound=COc1cc(NC(=O)C2(c3ccc(Cl)cc3)CC2)ccc1-n1cnc(Cl)c1 tgt="Mycobacterium tuberculosis" recordedresult=<90%
compound=COc1cc(NS(=O)(=O)c2c(F)ccc(C(F)(F)F)c2Cl)ccc1-n1cnc(Cl)c1 tgt="Mycobacterium tuberculosis" recordedresult=90%
compound=COc1cc(NS(=O)(=O)c2ccc(C(F)(F)F)cc2)ccc1-n1cnc(Cl)c1 tgt="Mycobacterium tuberculosis" recordedresult=95%
compound=COc1cc(NC(=O)c2ccc([N+](=O)[O-])cc2)ccc1-n1cnc(Cl)c1 tgt="Mycobacterium tuberculosis" recordedresult=<90%
compound=COc1cc(NC(=O)c2ccc(C(F)(F)F)cc2)ccc1-n1cnc(Cl)c1 tgt="Mycobacterium tuberculosis" recordedresult=90%
compound=COc1cc(NC(=O)c2cc(F)cc(C(F)(F)F)c2)ccc1-n1cnc(Cl)c1 tgt="Mycobacterium tuberculosis" recordedresult=90%
compound=COc1cc(NC(=O)c2c(F)ccc(C(F)(F)F)c2Cl)ccc1-n1cnc(Cl)c1 tgt="Mycobacterium tuberculosis" recordedresult=<90%
compound=COc1cc(NS(=O)(=O)C2(c3ccc(Cl)cc3)CC2)ccc1-n1cnc(Cl)c1 tgt="Mycobacterium tuberculosis" recordedresult=90%
compound=COc1cc(NC(=O)c2cccc([N+](=O)[O-])c2Cl)ccc1-n1cnc(Cl)c1 tgt="Mycobacterium tuberculosis" recordedresult=90%
